// values below are reported Loewe Volume
# System: panel of breast cancer cell lines
# protocol_description: Compound A with targeted agents and chemotherapies, 72-hour in vitro proliferation assays
# Assay type: cell-based
# applied_conditions: HCC1806; compound A × partner, 72-hour proliferation
I'd appreciate a reply containing only the number, no unit.

Prompt: Bench note: what Loewe Volume did O=C(c1cc(Cc2n[nH]c(=O)c3ccccc23)ccc1F)N1CCN(C(=O)C2CC2)CC1 [Olaparib] show?
Completion: 8.49

Continuing:
Prompt: Query (molecule): Cn1ncnc1[C@H]1c2n[nH]c(=O)c3cc(F)cc(c23)N[C@@H]1c1ccc(F)cc1 [BMN 673] ; field requested: Loewe Volume
Completion: 21.61

Prompt: What value of Loewe Volume has been reported for the following molecule? CC1(C)CCC(c2ccc(Cl)cc2)=C(CN2CCN(c3ccc(C(=O)NS(=O)(=O)c4ccc(N[C@H](CCN5CCOCC5)CSc5ccccc5)c(S(=O)(=O)C(F)(F)F)c4)cc3)CC2)C1 [ABT-263]
Completion: 46.26

Prompt: Entry N.N.[Cl][Pt][Cl] [Cisplatin] has what Loewe Volume?
Completion: 5.93

* * *

# Test system: panel of breast cancer cell lines
# protocol_description: Compound A with targeted agents and chemotherapies, 72-hour in vitro proliferation assays
# Format: cell-based
# applied_conditions: HCC70; compound A × partner, 72-hour proliferation
Structures can show the parent of a compound that is named as a salt.
Measured Bliss Volume by item
Just the number, please.

Answered cases to consult:
Prompt: Could you tell me which Bliss Volume is on file for CC1(C)CCC(c2ccc(Cl)cc2)=C(CN2CCN(c3ccc(C(=O)NS(=O)(=O)c4ccc(N[C@H](CCN5CCOCC5)CSc5ccccc5)c(S(=O)(=O)C(F)(F)F)c4)cc3)CC2)C1 ?
Completion: 44.63

Prompt: What Bliss Volume value was documented for this compound, CN(C)C(=O)c1cc2cnc(Nc3ccc(N4CCNCC4)cn3)nc2n1C1CCCC1 ?
Completion: −0.15

Prompt: Which Bliss Volume value belongs to C[C@]12CC[C@@H]3c4ccc(O)cc4C[C@@H](CCCCCCCCC[S+]([O-])CCCC(F)(F)C(F)(F)F)[C@H]3[C@@H]1CC[C@@H]2O (stereo partly drawn) ?
Completion: 10.34

---
Prompt: Which measured Bliss Volume value corresponds to Cc1c(-c2ccc(N3CCc4cccc(C(=O)Nc5nc6ccccc6s5)c4C3)nc2C(=O)O)cnn1CC12CC3CC(CC(C3)C1)C2 ?
Completion: 73.73

Prompt: // returns reported Bliss Volume for input N.N.O=C([O-])C1(C(=O)[O-])CCC1.[Pt+2]
Completion: 12.67

Prompt: What value of Bliss Volume has been recorded for this entry: Cn1ncnc1[C@H]1c2n[nH]c(=O)c3cc(F)cc(c23)N[C@@H]1c1ccc(F)cc1
Completion: 15.24

Prompt: Return reported Bliss Volume; argument: CC(C)NC[C@@H](C(=O)N1CCN(c2ncnc3c2[C@H](C)C[C@H]3O)CC1)c1ccc(Cl)cc1
Completion: 19.29

Prompt: May I ask what Bliss Volume has been recorded for CO[C@H]1C[C@@H]2CC[C@@H](C)[C@@](O)(O2)C(=O)C(=O)N2CCCC[C@H]2C(=O)O[C@H]([C@H](C)C[C@@H]2CC[C@@H](OCCO)[C@H](OC)C2)CC(=O)[C@H](C)/C=C(\C)[C@@H](O)[C@@H](OC)C(=O)[C@H](C)C[C@H](C)/C=C/C=C/C=C/1C ?
Completion: 9.56

Prompt: Return reported Bliss Volume; argument: Nc1ccn([C@@H]2O[C@H](CO)[C@@H](O)C2(F)F)c(=O)n1 [Gemcitabine Hydrochloride]
Completion: 18.66
